Recorded values, source PubChem BioAssay (NCI).

# System: SW-620 colon
# EXPERIMENT_NOTES: NCI-60 one-dose screen, 48 h (100 = growth as untreated, 0 = no growth, -100 = all killed)
# EXPERIMENTAL_SETUP: 10 µM unless noted
The panel holds about 83,000 compounds, 20% with a hit somewhere; the sample as a whole holds those more often.
MEASURED_ATTRIBUTE: growth (%)
Field format: number, assumed %, no unit text.

Worked cases, answers included:
COc1ccc(-c2nc3sc(-c4ccccc4)cn3n2)cc1 = 35.1
O=c1cc(SCc2ccccc2)nc[nH]1 = 107
COc1ccc(NC2=C(Br)C(=O)C(C)=C(C)C2=O)cc1 = 98.9
Oc1c(I)cc(I)cc1CNCCCN(Cc1ccccn1)Cc1ccccn1 = -61.9
Cc1ncc(C(=O)Nc2ccc(CN3CCN(C)CC3)c(C(F)(F)F)c2)cc1C#Cc1ccc(N)nc1 = -2.48
O=C(Nc1ccc(I)cc1F)c1cc(I)ccc1O = 10.8

Ask: State its growth for this molecule: `COc1cc(Nc2nc(NCCN)nc3cc[nH]c(=O)c23)cc(OC)c1`
Reply: 64.2

Ask: Quote growth reported for `CCCCOc1ccc(/C=N/NC(N)=S)cc1` please.
Reply: 73.3

Ask: Please report the measured growth for `Fc1cc(-c2nnc3n2NC(=Nc2ccc(Cl)cc2)CS3)c(Cl)cc1Cl`
Reply: 95.7

Ask: Return value of growth for input `COc1ccc(OC)c(/C=C/C(=O)N/N=C/c2ccccc2)c1` , no commentary.
Reply: 28.7

Ask: Supply recorded growth for `Cc1[nH]c(C(=O)Nc2ccc(C(=O)N3CCNCC3)cc2OC(C)C)c(Cl)c1Cl` here.
Reply: -55.8

Ask: Give the measured growth for `COc1cccc(Cc2cc(-c3ccccc3)nn(CC(=O)c3ccccc3)c2=O)c1`
Reply: 55.1

Ask: Identify the reported growth for the following entry. `COc1ccccc1/C=C1\Oc2cc(OCCN3CCC(Cc4ccccc4)CC3)ccc2C1=O`
Reply: 69.1

Ask: Return growth (reported value) for this molecule: `O=C(/C=C/c1sc(Cl)nc1Cl)c1ccccc1`
Reply: 33

Ask: Consider the molecule CC(=O)CC(c1cccs1)c1c(-c2ccccc2)[nH]c2ccccc12 (configuration not stated) . State its measured growth.
Reply: 90.4

Ask: Tell me its growth given `COc1cc(/C=C2\C(=O)Nc3ccc(Br)cc32)cc(OC)c1OC` as the entry.
Reply: 36.1
